Target: T1, human TGFβ2, mature receptor-binding domain (human, UniProt P09858 303-414 (pig entry), The mature TGFβ2 is a disulfide-linked homodimer of this 112-residue chain. The 4A11 epitope spans both monomers (p-1207).)
T1 sequence: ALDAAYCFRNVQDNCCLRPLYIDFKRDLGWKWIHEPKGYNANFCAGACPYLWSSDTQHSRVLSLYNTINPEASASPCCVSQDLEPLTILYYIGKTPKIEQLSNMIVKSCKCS
Assay: cell-based or functional assay
Reported Metric: HEKBlue TGFβ blocking IC50 (nM)
Report the value in nM with no unit label.

Observe how each entry below is paired with its result.
1) h4A11.v7.19 (antibody, human IgG1, kappa, N297G, V domains shown) VH: EVQLQESGPGLVKPSETLSLTCTVTGFSLSSYTVNWIRQPAGKGLEWIGYISYGGSAYYASWANGRVTISKDTSQVSLKLSSVTAADTAVYFCARHMQVGGAPTGSMAAFDPWGQGTLVTVSS VL: EIVLTQSPGTLSLSPGERATLSCQSSQSVYNNNYLSWFQQKPGQAPRLLIYGASTLTSGIPDRFSGSGSGTDFTLTISRLEPEDFAVYYCAGGYSGSSDKYAFGGGTKVEIKR	0.05
2) h4A11.v7.17 (antibody, human IgG1, kappa, N297G, V domains shown) VH: EVQLQESGPGLVKPSETLSLTCTVTGFSLSSYTVNWIRQPAGKGLEWIGYISYGGSAYYASWANGRVTISKDTSKNQVSLKLSSVTAADTAVYYCARHMQVGGAPTGSMAAFDPWGQGTLVTVSS VL: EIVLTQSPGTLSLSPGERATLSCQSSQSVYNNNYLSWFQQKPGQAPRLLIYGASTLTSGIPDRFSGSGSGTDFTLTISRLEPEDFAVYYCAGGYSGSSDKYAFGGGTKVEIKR	0.16
3) h4A11.v7.18 (antibody, human IgG1, kappa, N297G, V domains shown) VH: EVQLQESGPGLVKPSETLSLTCTVTGFSLSSYTVNWIRQPAGKGLEWIGYISYGGSAYYASWANGRVTISKDTSKNQVSLKLSSVTAADTAVYFCARHMQVGGAPTGSMAAFDPWGQGTLVTVSS VL: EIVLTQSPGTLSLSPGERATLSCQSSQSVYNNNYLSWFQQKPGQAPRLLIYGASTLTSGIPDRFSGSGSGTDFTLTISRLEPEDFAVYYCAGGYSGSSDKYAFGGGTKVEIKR	0.09
4) 4A11 (antibody, V domains shown, anti-TGFβ2/3, recombinant rabbit monoclonal; some paragraphs print the H/L pair as 32/33; also called Rb1.4A11; Rbt 4A11) VH: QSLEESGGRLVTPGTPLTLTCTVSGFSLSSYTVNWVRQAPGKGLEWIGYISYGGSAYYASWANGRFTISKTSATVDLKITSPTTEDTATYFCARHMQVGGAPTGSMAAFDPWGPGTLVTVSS VL: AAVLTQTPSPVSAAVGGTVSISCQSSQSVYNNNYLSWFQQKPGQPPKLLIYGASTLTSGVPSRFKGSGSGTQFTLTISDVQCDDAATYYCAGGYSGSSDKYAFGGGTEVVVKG	0.09

# next binder below
Query :: Tell us which HEKBlue TGFβ blocking IC50 value is on record for h4A11.v7.16 (antibody, human IgG1, kappa, N297G, V domains shown) VH: EVQLQESGPGLVKPSETLSLTCTVTGFSLSSYTVNWIRQPAGKGLEWIGYISYGGSAYYASWANGRVTISKDTSKNQFSLKLSSVTAADTAVYFCARHMQVGGAPTGSMAAFDPWGQGTLVTVSS VL: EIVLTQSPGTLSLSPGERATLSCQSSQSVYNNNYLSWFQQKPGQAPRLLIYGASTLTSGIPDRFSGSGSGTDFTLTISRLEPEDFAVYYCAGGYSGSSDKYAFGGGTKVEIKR
Result :: 0.09

This collection of values is drawn from patent US20210301005A1.
